test: NCI Yeast Anticancer Drug Screen. Data for the wt2 strain (AID 169);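 also: 0% = growth of vehicle-treated yeast cultures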; conditions: S. cerevisiae wt2 strain growth inhibition; at 33.0 µM; stronger effect = higher value
The panel holds about 79,000 compounds, 15% with a hit somewhere; the sample as a whole holds those more often.
Classification field: Criterion met = growth inhibition at or over 30%; Criterion not met = growth inhibition under 30%.

• CCC[CH2][Ge]([CH2]CCC)([CH2]CCC)[O]C(=O)C(OC)c1ccccc1 (stereo not drawn) = Criterion met
• CCCCCCCCC/C=C/C=C/C(=O)NCC(=O)NC1C(O)C(O)C(Nc2ncnc3nc[nH]c23)OC1C(O)CO (stereo not drawn) = Criterion met
• O=C(COC(=O)c1cc(O)c(O)c(O)c1)c1ccc(-c2ccccc2)cc1 = Criterion met

# check: growth inhibition of OC1(c2ccccc2)CSC2=Nc3ccccc3C3CCN1N23 (stereo not drawn) is greater than or equal to 30%
Criterion not met

# check: growth inhibition of O=C(O)CNc1ccc(Cl)c(Cl)c1 is greater than or equal to 30%
Criterion met

Reported growth inhibition reaches at least 30% for S=C(N/N=C/c1ccccn1)Nc1ccc(Cl)cc1 ?
Criterion not met

Does growth inhibition meet or surpass 30% for COc1ccc(/C=C2\SC(=S)N(/C=C/c3nc4ccccc4[nH]c3=O)C2=O)cc1OC ?
Criterion met

Given C/C(=N\NC(=S)N1CCCCC1)c1cccc(C)n1 , state whether its growth inhibition is at least 30%.
Criterion met

Decide: growth inhibition of CCN(CC)[P+](c1ccccc1O)(N(CC)CC)N(CC)CC >= 30%?
Criterion not met

Could you tell me if the measured growth inhibition of NC(=S)N/N=C\c1nccc2ccccc12 reaches 30% or more?
Criterion met

Determine whether this compound has growth inhibition no lower than 30%: CCS(=O)(=O)c1ccc(/C=C/C=N/NC(=S)NCC(C)C)cc1
Criterion not met

Please check the record COc1ccc2nc3cccc([N+](=O)[O-])c3c(NCCN(CCO)CCO)c2c1 and state if its growth inhibition is at or above 30%.
Criterion met

Please indicate if the recorded growth inhibition for BrCc1cccc2ccc3cccc(CBr)c3c12 meets or exceeds 30%.
Criterion not met

Would you say CCc1ccc(NS(=O)(=O)c2ccccc2)c([N+](=O)[O-])c1 shows growth inhibition at minimum 30%?
Criterion not met

Given the entry CC(C)c1ccccc1NC(=O)/C(Cl)=C(\Cl)C(=O)O , answer whether its growth inhibition meets or surpasses 30%.
Criterion not met

Reported growth inhibition at or above 30%? CCOC(=O)C1=C(C(=O)c2ccccc2)C(c2ccccc2[N+](=O)[O-])C(C(=O)c2ccccc2)=C(C(=O)OCC)N1
Criterion not met

Record CC1=NN(c2cccc(Cl)c2)C(=O)C1 ; criterion: growth inhibition no lower than 30%. Met?
Criterion not met

Determine whether this compound has growth inhibition no lower than 30%: CC(CC(C)(C)[N+](C)(C)C)[N+](C)(C)C (stereo not drawn)
Criterion not met

###

assay: NCI Yeast Anticancer Drug Screen. Data for the CLN2oe strain (AID 163);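 also: 0% = growth of vehicle-only control cultures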; conditions: S. cerevisiae CLN2oe strain, at 100.0 µM, stronger effect = higher value
The panel holds about 79,000 compounds, 15% with a hit somewhere; the sample as a whole holds those more often.
Range-based classes on measured growth inhibition: class 1 (below 10%), class 2 (10% to below 90%), class 3 (90% or more)

Below, 4 compounds whose answers are already recorded.
- O=C(NNc1ccnc2cc(Cl)ccc12)/C(=C\c1ccccc1Cl)NC(=O)c1ccccc1: class 2
- CN(CCc1ccccn1)c1ccc2c(c1)Cc1ccccc1-2: class 1
- CNC(=O)OCc1c(COC(=O)NC)c(-c2ccc(-c3ccccc3)cc2)n(C)c1C: class 1
- CC(C)(Br)C(=O)/C=C/c1ccc(Cl)c(Cl)c1: class 1

Band for OC(c1ccc(F)cc1)(c1ccc(F)cc1)C1CC1 ?
class 3

Lab log: Cc1cc(CO)c(O)c(CNCc2cc(C)cc(CO)c2O)c1 — assign growth inhibition category
class 3

In plain terms, what class is CCC/C(Cl)=N\OC(=O)Nc1ccc(Br)cc1 ?
class 3

Classify this compound: O=C1Nc2ccc(Cl)c(I)c2C1=O
class 2

Consider CCN(CC)[P+](c1ccccc1O)(N(CC)CC)N(CC)CC . To which growth inhibition class does it belong?
class 3

Class for CCN(CC)CCN1C(=O)c2cccc3cc(OC)cc(c23)C1=O ?
class 2

In plain terms, what class is C#CCCCc1ccccc1 ?
class 2

Class for CCS(=O)(=O)c1ccc(/C=C/C=N/NC(=S)NCC(C)C)cc1 ?
class 1

Band of CC[C@@]1(O)C(=O)OCc2c1cc1n(c2=O)Cc2cc3c(N)cccc3nc2-1 ?
class 2

Which class holds Cc1nc(-[n+]2nc(-c3ccncc3)nn2-c2ccccc2)sc1C ?
class 2

Given O=[n+]1c2ccc(Cl)cc2n([O-])c2ccc(Cl)cc21 , name the class its growth inhibition places it in.
class 1

Category of COC(=O)c1ccc(NCC2=CC(=O)C=CC2=O)cc1O :
class 3

###

experiment: NCI Yeast Anticancer Drug Screen. Data for the mlh1 strain (AID 171);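 also: 0% = growth of vehicle-treated control cultures of the same strain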; settings: S. cerevisiae mlh1 strain growth inhibition; at 1.2 µM; stronger effect = higher value
About 79,000 compounds went through this panel and 15% of them were active in at least one assay; those are over-represented in the sample as a whole.
Measured growth inhibition accompanies every entry in the list below.
Field format: number, assumed %, no unit text.

* Oc1ccc(NCn2c(=S)sc3ccccc32)cc1 | -44

Give the measured growth inhibition of O=C(O)c1ccccc1NC(=S)c1ccccc1 .
3

Using the record for Cc1ccc(S(=O)(=O)NCCSS(=O)(=O)c2ccc(C)cc2)cc1 , report its growth inhibition.
-27

Item under review: COc1ccc(/C(C)=N/OC(=O)c2c(-c3ccccc3Cl)noc2C)cc1CN1CCOCC1 . Reported growth inhibition?
-22

Quick one: growth inhibition for c1ccc2c(c1)Oc1cccc3cccc-2c13 ?
7

Entry Nc1ccc2c(c1)C(=O)c1cccc(N)c1C2=O has what growth inhibition?
0

I have this compound here, O=C1C2C=CC1C1C(=O)OC(=O)C21 (centres undefined) , and I need its recorded growth inhibition.
-45

###

assay: NCI Yeast Anticancer Drug Screen. Data for the rad50 strain (AID 155);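 also: 0% = growth of vehicle-only cultures of the same strain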; details: S. cerevisiae rad50 strain growth inhibition; at 5.0 µM (retest, dose inferred, filed as 0.5); stronger effect = higher value
About 79,000 compounds went through this panel and 15% of them were active in at least one assay; those are over-represented in the sample as a whole.
Each record here notes measured growth inhibition.
Form entry: value (%) — number only.

Would you please look over these solved cases?
- O=C1c2ccccc2-c2n[nH]c3cccc1c23: 100
- O=C(NCCCCNCCCNC(=O)c1cc(-c2ccccc2)nc2ccccc12)c1cc(-c2ccccc2)nc2ccccc12: -29

Consider the compound Cc1cccc2c(C(O)CBr)cc(-c3ccc(Cl)cc3)nc12 (centres undefined) and give its measured growth inhibition.
3

Requested field: growth inhibition. Item: COc1cc2ccc(/C=C\[N+](=O)[O-])cc2cc1OC
44

Quick check: growth inhibition of COc1cccc2nc3ccccc3nc12 ?
-22

Look at this compound and give its reported growth inhibition. O=[N+]([O-])C(=C(Sc1ccccc1)Sc1ccccc1)C(Cl)=C(Cl)Cl
5

growth inhibition lookup needed for COC(=O)CSSCc1ccc([N+](=O)[O-])cc1 , thanks.
15

Need growth inhibition, item [O-][n+]1c2ccc(O)cc2nc2ccc(Cl)cc21
-5

Which growth inhibition value is on record for CCCCCCCCCCC(=O)Cl ?
100

Look up growth inhibition for this compound: CC1(C)[C@@H]2CC[C@]1(C)[C@H](OC(=O)CSC#N)C2
-5

Please report the recorded growth inhibition for CC(=O)Nc1ccc2c(c1)C(=Nc1ccc(C(=O)O)cc1)c1ccccc1-2 .
6

###

assay: NCI Yeast Anticancer Drug Screen. Data for the mec2-1 strain (AID 157); conditions: S. cerevisiae mec2-1 strain, at 50.0 µM (retest, dose inferred, filed as 5.0), stronger effect = higher value
The panel holds about 79,000 compounds, 15% with a hit somewhere; the sample as a whole holds those more often.
molecules and their reported growth inhibition
# number only, unit % dropped from output

Worked examples, 6 molecules total:
- CCN(CC)CCNc1ccc([N+](=O)[O-])c2nc3ccc(OC)cc3c(N)c12: 21
- CC(/C=C/c1ccc2c(c1)OCO2)[N+](=O)[O-] (stereo not given): 99
- CCOC(=O)c1cnc2cc(C(F)(F)F)ccc2c1N=[N+]=[N-]: 4
- Cc1ccc(NC(=O)/C(Cl)=C(\Cl)C(=O)O)cc1C: 100
- S=C(S)NN1CCOCC1: -4
- CCCCN(CCCC)CCSc1ccc(Cl)cc1: 66

What does the record list as growth inhibition for O=C1CSc2cc([N+](=O)[O-])ccc2N1 ?
-12

Suppose we examine the molecule COc1ccc(C2c3cc4c(cc3OC(C)(O)C2C)OCO4)c(OC)c1 (stereo not given) ; what growth inhibition value has been reported?
63

Can you share its growth inhibition? I mean this molecule: CC(C)C1=CCC2C(=C1)CCC1C(C)(C(=O)O)CCCC21C (stereo not given) (tested in a mixture with another compound)
99
